Known MIC of a selection of molecules
# Tested on: Staphylococcus aureus
# PROCEDURE SUMMARY: Minimum inhibitory concentration against Staphylococcus aureus UC6685
# Format: functional
Write down the numeric answer in µg/mL and omit the unit.

Some solved entries appear below for comparison.
GIVEN SMILES | TEST SYSTEM | MIC [µg/mL]
CC(=O)NC[C@H]1CN(c2ccc(N3CCN(c4ccc5nc(C)c(C(C)=O)n5n4)CC3)c(F)c2)C(=O)O1 | Staphylococcus aureus | 4
COc1nc(OC)nc(N2CCN(c3ccc(N4C[C@H](CNC(C)=O)OC4=O)cc3F)CC2)n1 | Staphylococcus aureus | 2
CC(=O)NC[C@H]1CN(c2ccc(N3CCN(c4cnnc(Cl)c4Cl)CC3)c(F)c2)C(=O)O1 | Staphylococcus aureus | 2

Now turn to the next molecule.
Query string: Can you look up MIC on Staphylococcus aureus for `CC(=O)NC[C@H]1CN(c2ccc(N3CCN(c4cc(C)c(Cl)nn4)CC3)c(F)c2)C(=O)O1` ?
Result string: 4

* * *

Listed next: entries and their corresponding ED50.
# Tested on: Staphylococcus aureus
# PROCEDURE SUMMARY: compound was tested against Staphylococcus aureus UC9213 after po administration.
# Format: functional

GIVEN SMILES | TEST SYSTEM | MEASUREMENT NAME | EXPERIMENTAL VALUE
CC(=O)NC[C@H]1CN(c2ccc(N3CCN(c4cncc(Cl)n4)CC3)c(F)c2)C(=O)O1 | Staphylococcus aureus | ED50 | > 20 mg/kg
CC(=O)NC[C@H]1CN(c2ccc(N3CCN(c4cnnc(Cl)c4Cl)CC3)c(F)c2)C(=O)O1 | Staphylococcus aureus | ED50 | > 20 mg/kg
CC(=O)NC[C@H]1CN(c2ccc(N3CCN(c4ccnc(Cl)n4)CC3)c(F)c2)C(=O)O1 | Staphylococcus aureus | ED50 | 14.6 mg/kg
CC(=O)NC[C@H]1CN(c2ccc(N3CCN(c4cc(C)c(Cl)nn4)CC3)c(F)c2)C(=O)O1 | Staphylococcus aureus | ED50 | > 20 mg/kg

Query string: Checklist item: ED50 tested on Staphylococcus aureus, entry `CC(=O)NC[C@H]1CN(c2ccc(N3CCN(c4cccc(Br)n4)CC3)c(F)c2)C(=O)O1` , value?
Result string: > 20 mg/kg

* * *

Consider the following molecules and their measured MIC readings.
# Tested on: Streptococcus pneumoniae
# PROCEDURE SUMMARY: Minimum inhibitory concentration Streptococcus pneumoniae UC9912
# Format: functional
// return numeric value only (unit: µg/mL, not printed)

Solved entries:
GIVEN SMILES | EXPERIMENTAL VALUE
CC(=O)NC[C@H]1CN(c2ccc(N3CCN(c4ccncn4)CC3)c(F)c2)C(=O)O1 | 0.5
CC(=O)NC[C@H]1CN(c2ccc(N3CCN(c4cc(C)c(Cl)nn4)CC3)c(F)c2)C(=O)O1 | 1
CC(=O)NC[C@H]1CN(c2ccc(N3CCN(c4nccc(C(F)(F)F)n4)CC3)c(F)c2)C(=O)O1 | 2
COc1nc(OC)nc(N2CCN(c3ccc(N4C[C@H](CNC(C)=O)OC4=O)cc3F)CC2)n1 | 0.5

Query string: So what's the measured MIC for this one? `CC(=O)NC[C@H]1CN(c2ccc(N3CCN(c4cnccn4)CC3)c(F)c2)C(=O)O1`
Result string: 0.5

Query string: MIC lookup needed for `CC(=O)NC[C@H]1CN(c2ccc(N3CCN(c4cccnn4)CC3)c(F)c2)C(=O)O1` , thanks.
Result string: 0.5

Query string: Could you share which MIC value was measured for `CC(=O)NC[C@H]1CN(c2ccc(N3CCN(c4cc(C#N)ccn4)CC3)c(F)c2)C(=O)O1` ?
Result string: 0.5

* * *

# Tested on: Staphylococcus epidermidis
# PROCEDURE SUMMARY: Minimum inhibitory concentration against Staphylococcus epidermis UC12084
# Type: functional
MIC values by entry
Use µg/mL as the unit, but write only the number.

Recorded MIC, per entry:
GIVEN SMILES | MEASUREMENT NAME | EXPERIMENTAL VALUE
CC(=O)NC[C@H]1CN(c2ccc(N3CCN(c4nc(F)c(F)cc4F)CC3)c(F)c2)C(=O)O1 | MIC | 1
CC(=O)NC[C@H]1CN(c2ccc(N3CCN(c4ncccc4C#N)CC3)c(F)c2)C(=O)O1 | MIC | 0.5
CC(=O)NC[C@H]1CN(c2ccc(N3CCN(c4cc(N)nc(N)n4)CC3)c(F)c2)C(=O)O1 | MIC | 1
CC(=O)NC[C@H]1CN(c2ccc(N3CCN(c4nccc(C(F)(F)F)n4)CC3)c(F)c2)C(=O)O1 | MIC | 16
CC(=O)NC[C@H]1CN(c2ccc(N3CCN(c4nc(C)cc(C)c4C#N)CC3)c(F)c2)C(=O)O1 | MIC | 2

--- query ---
Query string: # lookup: MIC of `CC(=O)NC[C@H]1CN(c2ccc(N3CCN(c4ccnc(C)c4)CC3)c(F)c2)C(=O)O1`
Result string: 0.5

* * *

# System: Staphylococcus aureus
# PROCEDURE SUMMARY: Minimum inhibitory concentration against Staphylococcus aureus UC6685
# Type: functional
MIC listing for selected molecules.
Report the figure in µg/mL without appending any unit label.

Illustrative cases are given below, each with its answer.
GIVEN SMILES | UNITS SYMBOL | EXPERIMENTAL VALUE
CC(=O)NC[C@H]1CN(c2ccc(N3CCN(c4ccncc4)CC3)c(F)c2)C(=O)O1 | µg/mL | 2
CCCOc1nc(Cl)nc(N2CCN(c3ccc(N4C[C@H](CNC(C)=O)OC4=O)cc3F)CC2)n1 | µg/mL | 8
CC(=O)NC[C@H]1CN(c2ccc(N3CCN(c4ccccn4)CC3)c(F)c2)C(=O)O1 | µg/mL | 2
CC(=O)NC[C@H]1CN(c2ccc(N3CCN(c4nc(C)cc(C)c4C#N)CC3)c(F)c2)C(=O)O1 | µg/mL | 4

Query string: I would be grateful if you could share the reported MIC for `CC(=O)NC[C@H]1CN(c2ccc(N3CCN(c4cccc(Br)n4)CC3)c(F)c2)C(=O)O1` .
Result string: 1

Query string: So what does the record say about MIC for `CC(=O)NC[C@H]1CN(c2ccc(N3CCN(c4ccc(C#N)cn4)CC3)c(F)c2)C(=O)O1` ?
Result string: 2

Query string: Any idea what MIC was measured for `CC(=O)NC[C@H]1CN(c2ccc(N3CCN(c4ccncn4)CC3)c(F)c2)C(=O)O1` ?
Result string: 2

* * *

# Test system: Staphylococcus aureus
# PROCEDURE SUMMARY: compound was tested against Staphylococcus aureus UC9213 the eperezolid administered positive control expressed as ED50 values.
# Type: functional
MEASUREMENT NAME: ED50 (mg/kg)
Value expressed in mg/kg; do not type the unit.

Guide cases for ED50, answers given:
GIVEN SMILES | ED50 / mg/kg
CC(=O)NC[C@H]1CN(c2ccc(N3CCN(c4cnnc(Cl)c4Cl)CC3)c(F)c2)C(=O)O1 | 3.2
CC(=O)NC[C@H]1CN(c2ccc(N3CCN(c4cc(C)c(Cl)nn4)CC3)c(F)c2)C(=O)O1 | 8.7
CC(=O)NC[C@H]1CN(c2ccc(N3CCN(c4cncc(Cl)n4)CC3)c(F)c2)C(=O)O1 | 3.2
CC(=O)NC[C@H]1CN(c2ccc(N3CCN(c4ccnc(Cl)n4)CC3)c(F)c2)C(=O)O1 | 1.8

Query string: Which ED50 value belongs to `CC(=O)NC[C@H]1CN(c2ccc(N3CCN(c4cccc(Br)n4)CC3)c(F)c2)C(=O)O1` ?
Result string: 2.7

* * *

# Test system: Enterococcus faecalis
# PROCEDURE SUMMARY: Minimum inhibitory concentration against Enterococcus faecalis UC9217
# Format: functional
MEASUREMENT NAME: MIC (µg/mL)
Report as a plain number; the unit µg/mL is understood.

Here are 3 compounds together with their reported answers.
GIVEN SMILES | MIC / µg/mL
CC(=O)NC[C@H]1CN(c2ccc(N3CCN(c4ccnc5ccccc45)CC3)c(F)c2)C(=O)O1 | 2
CC(=O)NC[C@H]1CN(c2ccc(N3CCN(c4nc(F)c(F)cc4F)CC3)c(F)c2)C(=O)O1 | 2
CC(=O)NC[C@H]1CN(c2ccc(N3CCN(c4cc(N)nc(N)n4)CC3)c(F)c2)C(=O)O1 | 2

Query string: Entry `CC(=O)NC[C@H]1CN(c2ccc(N3CCN(c4ccnc(Cl)n4)CC3)c(F)c2)C(=O)O1` has what MIC?
Result string: 1

Query string: Quick check: MIC of `CC(=O)NC[C@H]1CN(c2ccc(N3CCN(c4ncccc4C#N)CC3)c(F)c2)C(=O)O1` ?
Result string: 1

Query string: Which value of MIC has been reported for `CC(=O)NC[C@H]1CN(c2ccc(N3CCN(c4ccc(C#N)cn4)CC3)c(F)c2)C(=O)O1` in the records?
Result string: 1

Query string: Given the entry `CC(=O)NC[C@H]1CN(c2ccc(N3CCN(c4cccc(F)n4)CC3)c(F)c2)C(=O)O1` , report its measured MIC.
Result string: 2
